Cited source: patent US11613531B2

Tested on: human ACTA2 gene promoter luciferase reporter in NIH3T3 cells
Measurement description: NIH3T3 Acta2-promoter driven-luciferase assay
Format: cell-based
Condition: NIH3T3, 24 h, with TGFβ1, 24 hr; read-out: NIH3T3 Acta2-luc, IC50
Each entry below lists one item and its recorded IC50 value.

{"columns": ["Structure string", "Recorded result"],
 "data": [
  ["FC(F)(F)c1cnc(N2C3CCC2CNC3)nc1Nc1ccc2[nH]ncc2c1", "> 5 µM"],
  ["c1cc(-c2ccc(Nc3nc(N4C5CCC4CNC5)nc4c3COCC4)cc2)ccn1", "> 10 µM"],
  ["Oc1nc(N2C3CCC2CNC3)nc(Nc2ccc3[nH]ncc3c2)c1F", "> 5 µM"],
  ["c1cc(-c2cn[nH]c2)ccc1Nc1nc(N2C3CNCC2C3)nc2c1COC2", "> 10 µM"]
]}

Param item: c1cc2[nH]ncc2cc1Nc1nc(N2C3CNCC2C3)nc2c1CNC2 ; param system: human ACTA2 gene promoter luciferase reporter in NIH3T3 cells; output IC50: > 5 µM
